target: human recombinant IL-17A (Homo sapiens); construct: purchased R&D Systems 7955-IL/CF; assay: IL-17A AlphaLISA assay (block binding of IL-17A to its receptor IL-17RA); conditions: compounds pre-incubated with the IL-17A for 24 h at room temperature; read-out: AlphaLISA pIC50 (converted)
Sequence (Q16552 24-155): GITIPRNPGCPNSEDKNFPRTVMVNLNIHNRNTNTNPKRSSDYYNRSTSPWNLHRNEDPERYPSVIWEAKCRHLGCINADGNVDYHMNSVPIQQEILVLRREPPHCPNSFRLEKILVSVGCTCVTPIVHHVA
For each record, write down the corresponding IC50.
Give bare numbers, in nM.

Cc1n[nH]c(C)c1-c1ccc(NC(=O)[C@@H](NC(=O)c2ccnn2C)C(c2ccccc2)c2ccccc2)cc1 [Example 32]	12.6
Cc1[nH]c(=O)ccc1-c1ccc(NC(=O)[C@@H](NC(=O)c2ccnn2C)C(c2ccccc2)c2ccccc2)cc1 [Example 11]	15.8
Cn1nccc1C(=O)N[C@H](C(=O)Nc1ccc(-c2ccc(=O)[nH]n2)c(F)c1)C(c1ccccc1)c1ccccc1 [Example 58]	316
Cn1nccc1C(=O)N[C@H](C(=O)Nc1ccc(-c2ccc(=O)n(C)c2)cc1)C(c1ccccc1)c1ccccc1 [Example 51]	25.1
Cn1nccc1C(=O)N[C@H](C(=O)Nc1ccc(-c2cc[nH]c(=O)c2)cc1)[C@H]1CC[C@H](C)CC1 [Example 87]	501
Cn1nccc1C(=O)N[C@H](C(=O)Nc1ccc(-c2ccncc2Cl)cc1)C(c1ccccc1)c1ccccc1 [Example 2]	31.6

// below: IC50 requested for another molecule
## Input Fill blank: measured IC50 of the molecule Cn1nccc1C(=O)N[C@H](C(=O)Nc1ccc(-c2cc(=O)[nH]cn2)c(F)c1)C(c1ccccc1)c1ccccc1 [Example 80] is ____.
## Output 316

----------
target: human recombinant IL-17A (Homo sapiens); construct: purchased R&D Systems 7955-IL/CF; experiment: IL-17A AlphaLISA assay (block binding of IL-17A to its receptor IL-17RA); settings: compounds pre-incubated with the IL-17A for 30 min (indicated by * in Table A); read-out: AlphaLISA pIC50 (converted)
For each record, write down the corresponding log10 IC50.
Annotation: log10 of IC50, nM basis.

Cc1noc(C)c1-c1ccc(NC(=O)[C@@H](NC(=O)c2ccnn2C(C)C)C2CCCCC2)nc1	2.10
Cc1cnn(C)c1-c1ccc(NC(=O)[C@@H](NC(=O)c2ccnn2C(C)C)[C@H]2CC[C@H](C)CC2)cn1	2.30
CCc1nocc1C(=O)N[C@H](C(=O)Nc1ccc(-c2c(C)noc2C)cn1)C1CCCCCC1	1.60
Cc1noc(C)c1-c1ccc(NC(=O)[C@@H](NC(=O)c2ccnn2C)C2CCCCC2)nc1	2.50

Batch of 7 molecules: report log10 IC50 for each.
1. Cc1noc(C)c1-c1ccc(NC(=O)C(NC(=O)c2ccnn2C)C2CCCCCCC2)nc1 (stereo not drawn)
2. Cc1nn(C)c(C)c1-c1ccc(NC(=O)[C@@H](NC(=O)c2ccnn2C)C2CCCCCC2)nc1
3. Cc1cnn(C)c1-c1ccc(NC(=O)C(NC(=O)c2ccnn2C)[C@H]2CC[C@H](C(F)(F)F)CC2)nc1 (stereo partly drawn)
4. CCn1nccc1C(=O)N[C@H](C(=O)Nc1ccc(-c2c(CO)cnn2C)cn1)[C@H]1CC[C@H](C)CC1
5. Cc1n[nH]c(C)c1-c1ccc(NC(=O)[C@@H](NC(=O)c2ccnn2C)[C@H]2CC[C@H](C)CC2)nc1
6. Cc1cnn(C)c1-c1ccc(NC(=O)C(NC(=O)c2ccnn2C)C2CC3CCC2C3)nc1 (stereo not drawn)
7. Cc1cc(=O)n(C)c(C)c1-c1ccc(NC(=O)[C@@H](NC(=O)c2ccnn2C)[C@H]2CC[C@H](C)CC2)nc1

## Output
2.20
2.70
2.80
2.40
2.30
2.40
2.10

Batch of 4 molecules: report log10 IC50 for each.
1. Cc1cc(NC(=O)[C@@H](NC(=O)c2ccnn2C)[C@H]2CC[C@H](C)CC2)ncc1-c1ccnn1C
2. CCc1nocc1C(=O)N[C@H](C(=O)Nc1ccc(-c2c(CO)cnn2C)cn1)C1CCCCCC1
3. Cc1n[nH]c(C)c1-c1ccc(NC(=O)[C@@H](NC(=O)c2ccnn2C)C2CCCCCC2)cn1
4. Cc1cc(=O)n(C)c(C)c1-c1ccc(NC(=O)[C@@H](NC(=O)c2ccnn2C)C2CCCCCC2)nc1

## Output
1: 2.70; 2: 2.20; 3: 2.20; 4: 2.20
